Reference for the values: patent US11254686B1

Target: adenosine A2B receptor (Homo sapiens (Human))
Sequence (P29275 whole entry): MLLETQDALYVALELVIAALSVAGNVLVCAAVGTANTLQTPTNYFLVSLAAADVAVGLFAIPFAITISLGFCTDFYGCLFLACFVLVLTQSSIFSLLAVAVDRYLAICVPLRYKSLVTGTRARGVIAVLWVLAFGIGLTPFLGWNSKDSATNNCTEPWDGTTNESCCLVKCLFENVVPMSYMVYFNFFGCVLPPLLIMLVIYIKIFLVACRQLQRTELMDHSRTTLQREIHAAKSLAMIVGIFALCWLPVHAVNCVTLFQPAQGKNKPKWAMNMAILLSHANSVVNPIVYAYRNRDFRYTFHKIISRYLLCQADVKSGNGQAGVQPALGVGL
Test: Adenosine receptor activity assay (Table 1), A2B activity
Format: biochemical
Settings: read-out: Ave A2B cAMP IC50
recorded.metric: IC50

[
  {
    "test.smiles": "O=C(c1nc(NCc2cncc(F)c2)nc2ccsc12)N1CC[C@@H](O)C1",
    "recorded.metric": "IC50",
    "meas.value": "10 to 50 nM"
  },
  {
    "test.smiles": "C[C@H](Nc1nc(C(=O)N2CC[C@H](F)C2)c2sccc2n1)c1cncc(F)c1",
    "recorded.metric": "IC50",
    "meas.value": "< 10 nM"
  },
  {
    "test.smiles": "O=C(c1nc(NCc2ccccn2)nc2ccsc12)N1CCCC1",
    "recorded.metric": "IC50",
    "meas.value": "10 to 50 nM"
  }
]

q: Retrieve IC50 measured for `COC[C@@H]1CCN1C(=O)c1nc(N[C@@H](C)c2cncc(F)c2)nc2cc(C)sc12` and print it.
a: 100 to 500 nM

q: Retrieve IC50 measured for `C[C@H](Nc1nc(C(=O)N2CC3(COC3)C2)c2sccc2n1)c1cccnc1` and print it.
a: 100 to 500 nM

q: Retrieve IC50 measured for `C[C@H](Nc1nc(C(=O)N2CC(NC(=O)OC(C)(C)C)C2)c2sccc2n1)c1cncc(F)c1` and print it.
a: 10 to 50 nM

q: Retrieve IC50 measured for `C[C@H](O)CNC(=O)c1nc(N[C@@H](C)c2cncc(F)c2)nc2ccsc12` and print it.
a: < 10 nM

q: Retrieve IC50 measured for `Cc1cc2nc(N[C@@H](C)c3cncc(F)c3)nc(C(=O)N3CC(CNC(=O)C(C)(C)C)C3)c2s1` and print it.
a: 10 to 50 nM
